Origin of values: patent US20200216495A1

- targetDesc: Tau40 P301L protein (human)
- method: cell-based or functional assay
Square brackets hold non-standard residues; d marks the D form. Ends that are not written are not given here.
propertyName: IC50, Tau40 assay (ThT) (µM)
Please respond with the number in µM and leave the unit unwritten.

| binder | quantityUnit | IC50, Tau40 assay (ThT) |
| --- | --- | --- |
| [dW][dR][dL][dK][dV][dR][dW][dH] [wrlkvrwh (PEPTIDE ID NO: 222)] | µM | 0.86 |

Request: Which IC50, Tau40 assay (ThT) is listed for [dF][dL][dK][dI][dR][dI][dH][dY] [flkirihy (PEPTIDE ID NO: 247)] ?
Result: 1.04

Request: Moving on to the next binder: [dL][dK][dI][dF][dI][dY][dY][dH] [lkifiyyh (PEPTIDE ID NO: 302)]
Result: 1.99

Request: Moving on to the next binder: [dW][dR][dL][dE][dV][dR][dW][dW] [wrlevrww (PEPTIDE ID NO: 288)]
Result: 1.72

Request: Moving on to the next binder: [dW][dQ][dL][dK][dV][dR][dW] [wqlkvrw (PEPTIDE ID NO: 273)]
Result: 1.49

Request: Moving on to the next binder: [dE][dL][dK][dI][dR][dI][dH][dY] [elkirihy (PEPTIDE ID NO: 253)]
Result: 1.16

Request: Moving on to the next binder: [dL][dK][dL][dE][dI][dR][dW][dH] [lkleirwh (PEPTIDE ID NO: 429)]
Result: 2.42

Request: Moving on to the next binder: [dL][dK][dI][dR][dI][dM][dY] [lkirimy (PEPTIDE ID NO: 219)]
Result: 0.84

Request: Moving on to the next binder: G[dL][dK][dI][dR][dI][dH][dY] [glkirihy (PEPTIDE ID NO: 236)]
Result: 0.96
